# System: MCF7
# experimental_details: cells
# recorded_conditions: Homo sapiens, MCF7, 72 h
# Description: Cytotoxicity against human MCF7 cells after 72 hrs by MTT assay
# reported IC50; entries follow
metric_name: IC50 (µM)

> print(dat)
                            compound.string  system  unit.string  readout.qualifier  observed.value
1  C=CCN(C)CCCCCCOc1ccc2c(-c3ccc(Br)cc3)nsc2c1.O=C(O)/C=C/C(=O)O    MCF7           µM                  =             8.3
2  CCN(CCO)CCCCOc1ccc2c(-c3ccc(Br)cc3)nsc2c1.Cl    MCF7           µM                  =            5.58
3  CC(C)c1c(C(=O)Nc2ccccc2)c(-c2ccccc2)c(-c2ccc(F)cc2)n1CC[C@@H](O)C[C@@H](O)CC(=O)O    MCF7           µM                  >              30

FYI, the data here is from ChEMBL document CHEMBL2163299.
